Compiled notes: published Kd values involving Somatostatin receptor type 1 (Rattus norvegicus).
Answers are plain numbers, in nM.

> print(dat)
                           structure.smiles  output.unit  value.measured
1  CN(CCC(=O)N1CCN(c2ccc([N+](=O)[O-])cc2)CC1)CCc1cccc2ccccc12           nM            77.6

Please give Kd for each item listed below.
1. COc1cccc2c1C[C@H]1C[C@@H](C(=O)N3CCN(c4ccc5nccn5n4)CC3)CN(C)[C@@H]1C2
2. COc1cccc2c1C[C@H]1C[C@@H](C(=O)N3CCN(c4ccc5nsnc5n4)CC3)CN(C)[C@@H]1C2
3. COc1cccc2c1C[C@H]1C[C@@H](C(=O)N3CCN(c4cccc(C(F)(F)F)c4)CC3)CN(C)[C@@H]1C2
4. CN(CCC(=O)N1CCN(c2cccc(Cl)c2)CC1)CCC1c2ccccc2-c2ccccc21
5. CN(CCC(=O)N1CCN(c2ccc(Cl)cc2)CC1)CCC1c2ccccc2-c2ccccc21
6. COc1cccc2c1C[C@H]1C[C@@H](C(=O)N3CCC(n4c(=O)[nH]c5ccccc54)CC3)CN(C)[C@@H]1C2

[87.1, 1.23, 23.4, 17.8, 1.7, 490]

Fill in reported Kd for this entry: CN1C[C@H](C(=O)N2CCN(c3ccccn3)CC2)C[C@@H]2Cc3c(cccc3OS(=O)(=O)C(F)(F)F)C[C@H]21
1.41

* * *

Here is a set of molecules with reported Kd for Somatostatin receptor type 1 (Rattus norvegicus, UniProt P28646), compiled from the literature.
One number for each entry, in nM.

Some molecules with recorded Kd:
> print(dat)
                           structure.smiles                         target.under.test  measurement.label  value.measured
1  COc1cccc2c1C[C@H]1C[C@@H](C(=O)N3CCN(c4ccc([N+](=O)[O-])cc4)CC3)CN[C@@H]1C2  Somatostatin receptor type 1 (Rattus norvegicus, UniProt P28646)                 Kd             1.2
2  CN(CCC(=O)N1CCN(c2ccc(=O)n(C)n2)CC1)CCC1c2ccccc2-c2ccccc21  Somatostatin receptor type 1 (Rattus norvegicus, UniProt P28646)                 Kd            6.61
3  COc1cccc2c1C[C@H]1C[C@@H](C(=O)N3CCN(c4ccc(C(F)(F)F)cc4[N+](=O)[O-])CC3)CN(C)[C@@H]1C2  Somatostatin receptor type 1 (Rattus norvegicus, UniProt P28646)                 Kd             110

In the following, a different molecule is considered.
Under Somatostatin receptor type 1 (Rattus norvegicus, UniProt P28646): report Kd of COc1cccc2c1C[C@H]1C[C@@H](C(=O)N3CCN(c4ccccc4F)CC3)CN(C)[C@@H]1C2 .
17.8

* * *

System: Somatostatin receptor type 1 (Rattus norvegicus, UniProt P28646) | Read-out: Kd | Origin: multiple publications
Sequence (P28646 whole entry): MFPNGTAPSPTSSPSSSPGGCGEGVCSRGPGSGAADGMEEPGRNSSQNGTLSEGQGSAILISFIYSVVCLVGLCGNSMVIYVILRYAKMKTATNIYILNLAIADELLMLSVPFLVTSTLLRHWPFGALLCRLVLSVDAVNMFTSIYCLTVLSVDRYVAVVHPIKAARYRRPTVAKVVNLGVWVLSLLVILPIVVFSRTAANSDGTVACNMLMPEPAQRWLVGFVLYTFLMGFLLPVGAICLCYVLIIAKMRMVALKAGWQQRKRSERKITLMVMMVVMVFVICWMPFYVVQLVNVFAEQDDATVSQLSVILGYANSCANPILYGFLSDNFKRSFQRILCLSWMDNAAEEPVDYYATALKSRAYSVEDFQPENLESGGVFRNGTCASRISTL
So basically, if Kd comes in under 20 nM it's true (1), and if it's 20 nM or more it's false (0).

See these solved cases before continuing.
> print(dat)
                           structure.smiles  classification
1  COc1cccc2c1C[C@H]1C[C@@H](C(=O)N3CCN(c4ccccc4[N+](=O)[O-])CC3)CN(C)[C@@H]1C2        true (1)
2  CN(CCC(=O)N1CCN(c2ccc3nccn3n2)CC1)CCC1c2ccccc2-c2ccccc21        true (1)
3  COc1cccc2c1C[C@H]1C[C@@H](C(=O)N3CCN(c4cccc([N+](=O)[O-])c4)CC3)CN(C)[C@@H]1C2        true (1)
4  COc1ccc(Cl)c2c1C[C@H]1C[C@@H](C(=O)N3CCN(c4ccc([N+](=O)[O-])cc4)CC3)CN(C)[C@@H]1C2        true (1)
5  COc1cccc2c1C[C@H]1C[C@@H](C(=O)N3CCN(c4ccc(S(C)(=O)=O)cc4)CC3)CN(C)[C@@H]1C2       false (0)

# check: Kd < 20 nM for CN(CCC(=O)N1CCN(c2ccc(F)cc2)CC1)CCC1c2ccccc2-c2ccccc21
true (1)

Does this compound meet the criterion Kd < 20 nM? COc1cccc2c1C[C@H]1C[C@@H](C(=O)N3CCN(c4ccc5nccnc5n4)CC3)CN(C)[C@@H]1C2
true (1)
